# assay.target: DAGLα (hDAGLα-FLAG) (Homo sapiens (Human))
# Sequence (Q9Y4D2 whole entry): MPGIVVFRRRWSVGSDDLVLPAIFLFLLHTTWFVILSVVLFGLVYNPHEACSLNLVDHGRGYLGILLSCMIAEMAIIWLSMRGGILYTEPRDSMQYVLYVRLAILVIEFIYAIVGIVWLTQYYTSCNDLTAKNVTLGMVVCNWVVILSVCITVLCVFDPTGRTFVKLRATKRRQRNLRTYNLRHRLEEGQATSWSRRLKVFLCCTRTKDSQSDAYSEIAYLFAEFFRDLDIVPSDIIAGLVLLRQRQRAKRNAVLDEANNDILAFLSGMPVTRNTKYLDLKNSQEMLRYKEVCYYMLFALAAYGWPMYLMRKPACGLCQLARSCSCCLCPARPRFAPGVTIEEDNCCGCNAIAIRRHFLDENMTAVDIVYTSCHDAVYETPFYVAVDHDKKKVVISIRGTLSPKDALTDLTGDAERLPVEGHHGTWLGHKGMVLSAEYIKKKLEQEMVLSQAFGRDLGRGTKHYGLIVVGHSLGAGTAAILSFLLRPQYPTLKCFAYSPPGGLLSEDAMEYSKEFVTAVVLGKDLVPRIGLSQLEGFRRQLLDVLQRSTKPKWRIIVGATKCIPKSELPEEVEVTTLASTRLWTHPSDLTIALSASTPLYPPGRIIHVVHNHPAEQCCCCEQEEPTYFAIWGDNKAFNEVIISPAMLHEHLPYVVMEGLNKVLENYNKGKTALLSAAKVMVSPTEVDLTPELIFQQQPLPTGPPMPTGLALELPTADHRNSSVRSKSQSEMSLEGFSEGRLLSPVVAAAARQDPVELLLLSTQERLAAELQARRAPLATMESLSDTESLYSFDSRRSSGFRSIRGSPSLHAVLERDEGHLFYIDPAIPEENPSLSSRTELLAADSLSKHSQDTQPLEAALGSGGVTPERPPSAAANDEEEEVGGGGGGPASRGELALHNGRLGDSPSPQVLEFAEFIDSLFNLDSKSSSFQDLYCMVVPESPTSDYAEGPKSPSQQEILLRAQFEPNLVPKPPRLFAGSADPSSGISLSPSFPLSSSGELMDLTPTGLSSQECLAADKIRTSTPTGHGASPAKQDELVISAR
# assay.explanation: competitive ABPP, membrane proteome of transfected HEK293T cells
# Type: biochemical
# setup.conditions: read-out: DAGLα IC50
pIC50: −log10 of the molar value.
property.label: pIC50

molecule=CCC(CC)CN(CCc1ccccc1)C(=O)n1ncc(-c2ccc(OC(F)(F)F)cc2)n1 result="5.00 to 5.70"
molecule="COc1cc(C)cc(OC)c1-c1ccc(-c2cn(C(=O)N3CCCCC3Cc3ccccc3)nn2)cc1 (stereo not drawn)" result="≥ 6.40"
molecule="CN(C)Cc1ccc(-c2cn(C(=O)N3CCCCC3Cc3ccccc3)nn2)cc1 (stereo not drawn)" result="5.00 to 5.70"
molecule=O=C(N(CCc1ccccc1)C1CCC1)n1cc(-c2ccc(OC(F)(F)F)cc2)nn1 result="≥ 6.40"
molecule=O=C(N(CCc1ccccc1)CC1CC1)n1cc(-c2ccc(OC(F)(F)F)cc2)nn1 result="≥ 6.40"
molecule=CC(C)(C)CN(CCc1ccncc1)C(=O)n1cc(-c2ccc(OC(F)(F)F)cc2)nn1 result="≥ 6.40"
molecule=O=C(N(CCc1ccccc1)C1CC1)n1cc(-c2ccc(OC(F)(F)F)cc2)nn1 result="≥ 6.40"
molecule="COc1cncc(OC)c1-c1ccc(-c2cn(C(=O)N3CCCCC3Cc3ccccc3)nn2)cc1 (stereo not drawn)" result="≥ 6.40"
molecule=CC(C)(C)CN(CCc1ccccc1)C(=O)n1ncc(-c2ccc(OC(F)(F)F)cc2)n1 result="5.00 to 5.70"
molecule="COc1cc(C(=O)N2CCCC2)cc(OC)c1-c1ccc(-c2cn(C(=O)N3CCCCC3Cc3ccccc3)nn2)cc1 (stereo not drawn)" result="5.70 to 6.40"
molecule="CN(C)C(=O)c1ccc(-c2ccc(-c3cn(C(=O)N4CCCCC4Cc4ccccc4)nn3)cc2)cc1 (stereo not drawn)" result="5.00 to 5.70"
molecule="O=C(N1CCCCC1Cc1ccccc1)n1cc(-c2ccc([N+](=O)[O-])cc2)nn1 (stereo not drawn)" result="≥ 6.40"
molecule="COc1cc(OC)c(-c2cnn(C(=O)N3CCCCC3Cc3ccccc3)n2)c(OC)c1 (stereo not drawn)" result="< 5.00"
molecule="CNC(=O)c1cc(OC)c(-c2ccc(-c3cn(C(=O)N4CCCCC4Cc4ccccc4)nn3)cc2)c(OC)c1 (stereo not drawn)" result="5.70 to 6.40"
molecule=C#CCO[C@@H]1CC[C@H](Cc2ccccc2)N(C(=O)n2ncc(C(O)(c3ccc(F)cc3)c3ccc(F)cc3)n2)C1 result="≥ 6.40"
molecule="O=C(N1CCCCC1Cc1ccccc1)n1cc(-c2ccc(-c3ccncc3)cc2)nn1 (stereo not drawn)" result="5.70 to 6.40"
molecule=CC(C)(C)CN(CCc1ccncc1)C(=O)n1ncc(-c2ccc(OC(F)(F)F)cc2)n1 result="5.00 to 5.70"
molecule="COc1ncnc(OC)c1-c1ccc(-c2cn(C(=O)N3CCCCC3Cc3ccccc3)nn2)cc1 (stereo not drawn)" result="≥ 6.40"
molecule="CS(=O)(=O)OCc1ccc(-c2cn(C(=O)N3CCCCC3Cc3ccccc3)nn2)cc1 (stereo not drawn)" result="≥ 6.40"
molecule="COc1cc(OC)c(-c2cn(C(=O)N3CCCCC3Cc3ccccc3)nn2)c(OC)c1 (stereo not drawn)" result="< 5.00"
molecule=CCC(CC)CN(CCc1cccnc1)C(=O)n1ncc(-c2ccc(OC(F)(F)F)cc2)n1 result="5.70 to 6.40"
molecule="CN(C)C(=O)c1ccccc1-c1ccc(-c2cn(C(=O)N3CCCCC3Cc3ccccc3)nn2)cc1 (stereo not drawn)" result="≥ 6.40"
molecule="COc1cc(C(=O)N(C)C)cc(OC)c1-c1ccc(-c2cn(C(=O)N3CCCCC3Cc3ccccc3)nn2)cc1 (stereo not drawn)" result="5.70 to 6.40"
molecule="CN(C)C(=O)c1cccc(-c2ccc(-c3cn(C(=O)N4CCCCC4Cc4ccccc4)nn3)cc2)c1 (stereo not drawn)" result="5.70 to 6.40"
molecule="COc1cncc(OC)c1-c1ccc(-c2cnn(C(=O)N3CCCCC3Cc3ccccc3)n2)cc1 (stereo not drawn)" result="5.00 to 5.70"
molecule=CC(C)(C)CN(CCc1cccnc1)C(=O)n1cc(-c2ccc(OC(F)(F)F)cc2)nn1 result="≥ 6.40"
molecule=CCC(CC)CN(CCc1ccncc1)C(=O)n1ncc(-c2ccc(OC(F)(F)F)cc2)n1 result="< 5.00"
